These data points were gathered from ChEMBL document CHEMBL4689842.

tested on: Fibroblast; experiment: Multiplex assay against human fibroblast; type: toxicity, cell-based; details: 24 h, 10 µM, compound concentration 10 uM, replicate 2
Lab note: anything with Total Cell Count below 70 is marked Condition met; values at 70 or higher are marked Condition not met.

1. N#Cc1cccc(C(=O)Nc2cc(-c3ccccc3)nn2-c2ccccc2)c1; Condition met
2. Oc1cccc(-c2nc(N3CCOCC3)c3oc4ncccc4c3n2)c1 [PI-103]; Condition not met
3. CCOC(=O)CCNc1cc(N2CCc3ccccc3CC2)nc(-c2ccccn2)n1; Condition met

Find out if reported Total Cell Count for CCOc1ccn(-c2ccc(F)cc2)c(=O)c1C(=O)Nc1ccc(Oc2ccnc(N)c2Cl)c(F)c1 [BMS-777607] is less than 70
Condition not met

Find out if reported Total Cell Count for CCCCN(CC)c1nc(C)nc2c1c(C)cn2-c1c(C)cc(C)cc1C.Cl is less than 70
Condition not met

Find out if reported Total Cell Count for CC(C)C[C@H](NC(=O)[C@H](Cc1ccccc1)NC(=O)CNC(=O)CNC(=O)[C@@H](N)Cc1ccc(O)cc1)C(=O)O [ENKEPHALIN] is less than 70
Condition not met

* * *

system: U2OS; test: Multiplex assay against U2OS; assay type: toxicity, cell-based; details: human, 24 h, 1 µM, compound concentration 1 uM, replicate 1
Lab note: anything with Population Healthy Nuclei (%) at or over 80% counts as Y; the rest go in N.

Observe how each entry below is paired with its result.
1) CCOC(=O)CCNc1cc(N2CCc3ccccc3CC2)nc(-c2ccccn2)n1; Y
2) CN(c1cc(C(F)(F)F)nc(OCCC(=O)O)n1)c1cccc2c1CCC2; N
3) Cc1ccc(S(=O)(=O)NC2c3ccccc3Oc3ccccc32)cc1; N

Kindly determine if Population Healthy Nuclei (%) recorded for CN1C(=O)[C@@H](NC(=O)c2cc3ccccc3[nH]2)N=C(c2ccccc2)c2ccccc21 [DEVAZEPIDE] is above or exactly 80%.
N

Kindly determine if Population Healthy Nuclei (%) recorded for Cl.Cn1c2c(c3ccc(Cl)c(Cl)c31)C(C#N)C1(CCNCC1)NC2=O (centres undefined) is above or exactly 80%.
Y

Kindly determine if Population Healthy Nuclei (%) recorded for Cc1c(P(=S)(c2ccccc2)c2ccccc2)n2ccccc2[n+]1C/C=C/c1ccccc1.[Br-] is above or exactly 80%.
N

Kindly determine if Population Healthy Nuclei (%) recorded for CC(/C=C1\SC(=S)N(CCCC(=O)Nc2ccc(C(=O)O)c(O)c2)C1=O)=C\c1ccccc1 is above or exactly 80%.
Y

Kindly determine if Population Healthy Nuclei (%) recorded for N#Cc1cccc(C(=O)Nc2cc(-c3ccccc3)nn2-c2ccccc2)c1 is above or exactly 80%.
N

* * *

tested on: U2OS; assay: Multiplex assay against U2OS; format: toxicity, cell-based; details: human, 24 h, 1 µM, compound concentration 1 uM, replicate 1
ASSAY_METRIC: Population Apoptotic (%)
Reply with just the number (in %).

1. CC[C@H](Nc1ncnc2[nH]cnc12)c1nc2cccc(F)c2c(=O)n1-c1ccccc1 [IDELALISIB]; 45
2. Cl.Cn1c2c(c3ccc(Cl)c(Cl)c31)C(C#N)C1(CCNCC1)NC2=O (configuration not stated); 40
3. CC(C)c1cc(Nc2nc(N3CCC[C@H](N)C3)ncc2C(N)=O)cc(C(C)C)n1; 57
4. CN1C(=O)[C@@H](NC(=O)c2cc3ccccc3[nH]2)N=C(c2ccccc2)c2ccccc21 [DEVAZEPIDE]; 31
5. Cc1ccc(S(=O)(=O)NC2c3ccccc3Oc3ccccc32)cc1; 59
6. N#CCNC(=O)c1ccc(-c2ccnc(Nc3ccc(N4CCOCC4)cc3)n2)cc1 [MOMELOTINIB]; 42
7. CC[C@@H]1C(=O)N(C)c2cnc(Nc3ccc(C(=O)NC4CCN(C)CC4)cc3OC)nc2N1C1CCCC1 [BI-2536]; 46
8. NC(=O)c1ccc2nc(-c3ccc(C4(N)CCC4)cc3)c(-c3ccccc3)n2n1 [BAY-1125976]; 42

Which Population Apoptotic (%) is listed for CC(C)[C@H](CO)Nc1nc(Nc2cccc(Cl)c2)c2ncn(C(C)C)c2n1 [PURVALANOLA] ?
36

Which Population Apoptotic (%) is listed for C[C@@H](Oc1cc(-n2cnc3ccc(CN4CCN(C)CC4)cc32)sc1C(N)=O)c1ccccc1C(F)(F)F [GSK-461364] ?
78

Which Population Apoptotic (%) is listed for Cc1ccc(NC(=O)Nc2cc(C(F)(F)F)ccc2F)cc1Nc1ccc2c(c1)NC(=O)/C2=C\c1ccc[nH]1 ?
75

Which Population Apoptotic (%) is listed for Cc1c(P(=S)(c2ccccc2)c2ccccc2)n2ccccc2[n+]1C/C=C/c1ccccc1.[Br-] ?
55

Which Population Apoptotic (%) is listed for CCOc1ccn(-c2ccc(F)cc2)c(=O)c1C(=O)Nc1ccc(Oc2ccnc(N)c2Cl)c(F)c1 [BMS-777607] ?
57

* * *

Population Tubulin-Different-Phenotype (%) reference
tested on: HEK-293T; experiment: Multiplex assay against HEK293T; format: toxicity, cell-based; settings: human, 24 h, 1 µM, compound concentration 1 uM, replicate 1;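 for Population Tubulin-Different-Phenotype (%): share of the cells with healthy nuclei that show this phenotype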
Reply with just the number (in %).

Take a look at these entries with their results.
1. CN(c1cc(C(F)(F)F)nc(OCCC(=O)O)n1)c1cccc2c1CCC2; 32
2. Cl.Cn1c2c(c3ccc(Cl)c(Cl)c31)C(C#N)C1(CCNCC1)NC2=O (stereo not given); 17

Which Population Tubulin-Different-Phenotype (%) is listed for Cc1c(P(=S)(c2ccccc2)c2ccccc2)n2ccccc2[n+]1C/C=C/c1ccccc1.[Br-] ?
87

Which Population Tubulin-Different-Phenotype (%) is listed for CCCCN(CC)c1nc(C)nc2c1c(C)cn2-c1c(C)cc(C)cc1C.Cl ?
36

Which Population Tubulin-Different-Phenotype (%) is listed for N#CCNC(=O)c1ccc(-c2ccnc(Nc3ccc(N4CCOCC4)cc3)n2)cc1 ?
34

Which Population Tubulin-Different-Phenotype (%) is listed for NC(=O)c1ccc2nc(-c3ccc(C4(N)CCC4)cc3)c(-c3ccccc3)n2n1 ?
44

Which Population Tubulin-Different-Phenotype (%) is listed for Cc1ccc(NC(=O)Nc2cc(C(F)(F)F)ccc2F)cc1Nc1ccc2c(c1)NC(=O)/C2=C\c1ccc[nH]1 ?
33

Which Population Tubulin-Different-Phenotype (%) is listed for N#Cc1cccc(C(=O)Nc2cc(-c3ccccc3)nn2-c2ccccc2)c1 ?
51

Which Population Tubulin-Different-Phenotype (%) is listed for CC(/C=C1\SC(=S)N(CCCC(=O)Nc2ccc(C(=O)O)c(O)c2)C1=O)=C\c1ccccc1 ?
26

* * *

Total Cell Count reference
test system: Fibroblast; experiment: Multiplex assay against human fibroblast; type: toxicity, cell-based; settings: 24 h, 1 µM, compound concentration 1 uM, replicate 1
Just the number, please, no unit attached.

Take a look at these entries with their results.
1. CCCCN(CC)c1nc(C)nc2c1c(C)cn2-c1c(C)cc(C)cc1C.Cl; 107
2. Cc1c(P(=S)(c2ccccc2)c2ccccc2)n2ccccc2[n+]1C/C=C/c1ccccc1.[Br-]; 181
3. N#Cc1cccc(C(=O)Nc2cc(-c3ccccc3)nn2-c2ccccc2)c1; 180

Which Total Cell Count is listed for Cl.Cn1c2c(c3ccc(Cl)c(Cl)c31)C(C#N)C1(CCNCC1)NC2=O (centres undefined) ?
379

Which Total Cell Count is listed for Oc1cccc(-c2nc(N3CCOCC3)c3oc4ncccc4c3n2)c1 [PI-103] ?
189

Which Total Cell Count is listed for CN(c1cc(C(F)(F)F)nc(OCCC(=O)O)n1)c1cccc2c1CCC2 ?
129

Which Total Cell Count is listed for CC(C)[C@H](CO)Nc1nc(Nc2cccc(Cl)c2)c2ncn(C(C)C)c2n1 [PURVALANOLA] ?
248

Which Total Cell Count is listed for Cc1ccc(S(=O)(=O)NC2c3ccccc3Oc3ccccc32)cc1 ?
119

Which Total Cell Count is listed for CN1C(=O)[C@@H](NC(=O)c2cc3ccccc3[nH]2)N=C(c2ccccc2)c2ccccc21 [DEVAZEPIDE] ?
104

* * *

Population Hoechst High Intensity Objects (%) reference
test system: HEK-293T; experiment: Multiplex assay against HEK293T; assay type: toxicity, cell-based; conditions: human, 24 h, 1 µM, compound concentration 1 uM, replicate 1
Reply with just the number (in %).

HEK-293T / Population Hoechst High Intensity Objects (%) / N#Cc1cccc(C(=O)Nc2cc(-c3ccccc3)nn2-c2ccccc2)c1 : value?
12

HEK-293T / Population Hoechst High Intensity Objects (%) / Oc1cccc(-c2nc(N3CCOCC3)c3oc4ncccc4c3n2)c1 [PI-103] : value?
22

HEK-293T / Population Hoechst High Intensity Objects (%) / CCOc1ccn(-c2ccc(F)cc2)c(=O)c1C(=O)Nc1ccc(Oc2ccnc(N)c2Cl)c(F)c1 [BMS-777607] : value?
10

HEK-293T / Population Hoechst High Intensity Objects (%) / CN(c1cc(C(F)(F)F)nc(OCCC(=O)O)n1)c1cccc2c1CCC2 : value?
11

HEK-293T / Population Hoechst High Intensity Objects (%) / CC(C)[C@H](CO)Nc1nc(Nc2cccc(Cl)c2)c2ncn(C(C)C)c2n1 [PURVALANOLA] : value?
11

HEK-293T / Population Hoechst High Intensity Objects (%) / CC[C@@H]1C(=O)N(C)c2cnc(Nc3ccc(C(=O)NC4CCN(C)CC4)cc3OC)nc2N1C1CCCC1 [BI-2536] : value?
12
